molecular target: H5N1 neuraminidase (A/Anhui/2005) (Influenza A virus (H5N1)); test: biochemical; format: biochemical, influenza A H5N1 (A/Anhui/2005); details: read-out: inhibition rate against NA from H5N1 subtype
endpoint: inhibition at 10 µM
Answer by giving the amount and then stating its unit.

inhibition at 10 µM measured on CCC(CC)O[C@@H]1C=C(C(=O)O)C[C@H](NS(=O)(=O)c2ccccc2[N+](=O)[O-])[C@H]1NC(C)=O = 32%

inhibition at 10 µM measured on CCC(CC)O[C@@H]1C=C(C(=O)O)C[C@H](NS(=O)(=O)c2cccc([N+](=O)[O-])c2)[C@H]1NC(C)=O = 20.3%

inhibition at 10 µM measured on CCC(CC)O[C@@H]1C=C(C(=O)O)C[C@H](NS(=O)(=O)c2cccc(N)c2)[C@H]1NC(C)=O = 37.3%

inhibition at 10 µM measured on CCC(CC)O[C@@H]1C=C(C(=O)O)C[C@H](NS(=O)(=O)c2ccc([N+](=O)[O-])cc2)[C@H]1NC(C)=O = 0.5%

inhibition at 10 µM measured on CCCS(=O)(=O)N[C@H]1CC(C(=O)O)=C[C@@H](OC(CC)CC)[C@@H]1NC(C)=O = 43.2%

inhibition at 10 µM measured on CCCCS(=O)(=O)N[C@H]1CC(C(=O)O)=C[C@@H](OC(CC)CC)[C@@H]1NC(C)=O = 30.3%

inhibition at 10 µM measured on CCC(CC)O[C@@H]1C=C(C(=O)O)C[C@H](NS(=O)(=O)C(F)(F)F)[C@H]1NC(C)=O = 24.8%
